These data points were gathered from patent US20220204473A1.

# ASSAY TEXT: PK assay in rat (intravenous injection and oral gavage)
# Format: in vivo
# TEST CONDITIONS: plasma, 1 mg/kg; male SD rat, intravenous injection, 1 mpk, 5% DMSO + 15% Solutol + 80% Saline; read-out: Peak concentration Cmax
PARAMETER: Cmax (ng/mL)
The reply should contain only the number, in ng/mL.

A selection of reference data follows.
Please give the measured Cmax for this molecule: CN(C)c1cc2nn([C@H]3C[C@H](C(C)(C)O)C3)cc2cc1NC(=O)c1cccc(C(F)(F)F)n1 [MY-004-089]
1580

Please give the measured Cmax for this molecule: COc1cc2nn([C@H]3CC[C@H](O)CC3)cc2cc1NC(=O)c1cccc(C(F)(F)F)n1 [MY-004-127-1]
1420

Please give the measured Cmax for this molecule: COc1cc2nn([C@H]3CC[C@](C)(O)CC3)cc2cc1NC(=O)c1cccc(C(F)(F)F)n1 [MY-004-126-1]
1210

Next:
Please give the measured Cmax for this molecule: COc1cc2nn([C@H]3C[C@H](CO)C3)cc2cc1NC(=O)c1cccc(C(F)(F)F)n1 [MY-004-082]
1320

Please give the measured Cmax for this molecule: COc1cc2nn([C@H]3CC[C@@](C)(O)CC3)cc2cc1NC(=O)c1cccc(C(F)(F)F)n1 [MY-004-126-2]
1430

###

# ASSAY TEXT: PK assay in rat (intravenous injection and oral gavage)
# Format: in vivo
# TEST CONDITIONS: plasma, 5 mg/kg; male SD rat, oral administration, 5 mpk, 15% solutol HS15 + 85% PBS; read-out: Average retention time MRT
# Protocol: The rats used for pharmacokinetic study in the example were male SPF-grade SD rats (B&K Universal, Shanghai). Route of administration: a single dose by oral gavage or intravenous injection Sampling points: 0.083 h, 0.25 h, 0.5 h, 1 h, 2 h, 4 h, 6 h, 8 h and 24 h after administration Sample processing: 0.2 mL of venous blood was collected, and let stand on ice before centrifugation to separate plasma (centrifugation conditions: 8000 rpm, 6 min, 4° C.). […]
PARAMETER: MRT

Please give the measured MRT for this compound: "COc1cc2nn([C@H]3CC[C@@](C)(O)CC3)cc2cc1NC(=O)c1cccc(C(F)(F)F)n1"
10.3 h

Please give the measured MRT for this compound: "COc1cc2nn([C@H]3CC[C@H](O)CC3)cc2cc1NC(=O)c1cccc(C(F)(F)F)n1"
9.16 h

Please give the measured MRT for this compound: "COc1cc2nn([C@H]3CC[C@](C)(O)CC3)cc2cc1NC(=O)c1cccc(C(F)(F)F)n1"
22.4 h

###

Documented AUC(0-inf) across a set of compounds
# ASSAY TEXT: PK assay in rat (intravenous injection and oral gavage)
# Format: in vivo
# TEST CONDITIONS: plasma, 1 mg/kg; male SD rat, intravenous injection, 1 mpk; read-out: Area under curve AUC0-∞
The reply should contain only the number, in ng·h/mL.

A selection of reference data follows.
Please give the measured AUC(0-inf) for this compound: "CN(C)c1cc2nn([C@H]3C[C@H](C(C)(C)O)C3)cc2cc1NC(=O)c1cccc(C(F)(F)F)n1"
3510

Please give the measured AUC(0-inf) for this compound: "COc1cc2nn([C@H]3CC[C@](C)(O)CC3)cc2cc1NC(=O)c1cccc(C(F)(F)F)n1"
3250

Please give the measured AUC(0-inf) for this compound: "COc1cc2nn([C@H]3CC[C@@](C)(O)CC3)cc2cc1NC(=O)c1cccc(C(F)(F)F)n1"
4540

Please give the measured AUC(0-inf) for this compound: "COc1cc2nn([C@H]3C[C@H](CO)C3)cc2cc1NC(=O)c1cccc(C(F)(F)F)n1"
793

For the next question, use this compound.
Please give the measured AUC(0-inf) for this compound: "COc1cc2nn([C@H]3CC[C@H](O)CC3)cc2cc1NC(=O)c1cccc(C(F)(F)F)n1"
5880

###

# ASSAY TEXT: PK assay in rat (intravenous injection and oral gavage)
# Type: in vivo
# TEST CONDITIONS: plasma, 5 mg/kg; male SD rat, oral administration, 5 mpk, 15% solutol HS15 + 85% PBS; read-out: Peak concentration Cmax
Documented Cmax across a set of molecules
The reply should contain only the number, in ng/mL.

A selection of reference data follows.
Please give the measured Cmax for this molecule: "COc1cc2nn([C@H]3CC[C@](C)(O)CC3)cc2cc1NC(=O)c1cccc(C(F)(F)F)n1"
924

Please give the measured Cmax for this molecule: "COc1cc2nn([C@H]3CC[C@H](O)CC3)cc2cc1NC(=O)c1cccc(C(F)(F)F)n1"
1480

For the next question, use this molecule.
Please give the measured Cmax for this molecule: "COc1cc2nn([C@H]3CC[C@@](C)(O)CC3)cc2cc1NC(=O)c1cccc(C(F)(F)F)n1"
1150

###

# ASSAY TEXT: PK assay in rat (intravenous injection and oral gavage)
# Type: in vivo
# TEST CONDITIONS: plasma, 5 mg/kg; male SD rat, oral administration, 5 mpk, 15% solutol HS15 + 85% PBS; read-out: Time to peak tmax
PARAMETER: Tmax

A selection of reference data follows.
Please give the measured Tmax for this molecule: COc1cc2nn([C@H]3CC[C@](C)(O)CC3)cc2cc1NC(=O)c1cccc(C(F)(F)F)n1 [MY-004-126-1]
4 h

Please give the measured Tmax for this molecule: COc1cc2nn([C@H]3CC[C@@](C)(O)CC3)cc2cc1NC(=O)c1cccc(C(F)(F)F)n1 [MY-004-126-2]
4 h

Next:
Please give the measured Tmax for this molecule: COc1cc2nn([C@H]3CC[C@H](O)CC3)cc2cc1NC(=O)c1cccc(C(F)(F)F)n1 [MY-004-127-1]
4.67 h

###

# SYSTEM: CYP3A4 (Homo sapiens)
# Construct: tissue Corning (USA); host or cells: mixed human liver microsomes
# Sequence (P08684 whole entry): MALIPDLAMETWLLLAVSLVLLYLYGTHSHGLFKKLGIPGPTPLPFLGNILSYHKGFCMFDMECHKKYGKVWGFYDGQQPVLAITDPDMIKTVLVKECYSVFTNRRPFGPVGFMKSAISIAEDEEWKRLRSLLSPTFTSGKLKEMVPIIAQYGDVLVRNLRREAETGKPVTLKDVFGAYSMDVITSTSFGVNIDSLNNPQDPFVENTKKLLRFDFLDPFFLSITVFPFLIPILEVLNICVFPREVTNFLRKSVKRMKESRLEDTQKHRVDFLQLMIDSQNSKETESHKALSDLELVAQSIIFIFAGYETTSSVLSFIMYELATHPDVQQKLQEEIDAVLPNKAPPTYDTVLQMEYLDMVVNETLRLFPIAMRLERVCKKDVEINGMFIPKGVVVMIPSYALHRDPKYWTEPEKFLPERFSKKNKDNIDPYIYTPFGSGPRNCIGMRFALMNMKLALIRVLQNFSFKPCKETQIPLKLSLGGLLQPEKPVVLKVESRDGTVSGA
# ASSAY TEXT: CYP450 inhibition in human liver microsomes, CYP3A4
# Assay type: in vitro ADME
PARAMETER: IC50

Please give the measured IC50 for this compound: CC(C)(O)CCn1cc2cc(NC(=O)c3cccc(C(F)(F)F)n3)c(C(C)(C)O)cc2n1 [MYA, reference compound]
> 30 µM

###

# SYSTEM: CYP2C9 (Homo sapiens)
# Construct: tissue Corning (USA); host or cells: mixed human liver microsomes
# Sequence (P11712 whole entry): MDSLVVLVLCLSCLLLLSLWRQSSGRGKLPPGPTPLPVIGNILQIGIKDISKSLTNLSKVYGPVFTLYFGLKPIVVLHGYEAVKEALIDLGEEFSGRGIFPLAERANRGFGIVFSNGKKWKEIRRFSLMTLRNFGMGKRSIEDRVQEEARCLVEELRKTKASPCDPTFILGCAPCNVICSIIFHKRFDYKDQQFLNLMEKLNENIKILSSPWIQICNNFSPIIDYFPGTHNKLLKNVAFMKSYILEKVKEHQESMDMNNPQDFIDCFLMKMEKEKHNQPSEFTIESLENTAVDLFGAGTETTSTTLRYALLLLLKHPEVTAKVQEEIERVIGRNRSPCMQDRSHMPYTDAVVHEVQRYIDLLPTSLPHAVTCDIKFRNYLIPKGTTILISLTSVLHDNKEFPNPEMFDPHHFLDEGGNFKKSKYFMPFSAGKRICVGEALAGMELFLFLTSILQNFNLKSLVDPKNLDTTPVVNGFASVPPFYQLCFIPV
# ASSAY TEXT: CYP450 inhibition in human liver microsomes, CYP2C9
# Format: in vitro ADME
PARAMETER: pIC50
Lab note — pIC50 values are minus log10 of concentrations in M.

Please give the measured pIC50 for this compound: CC(C)(O)CCn1cc2cc(NC(=O)c3cccc(C(F)(F)F)n3)c(C(C)(C)O)cc2n1 [MYA, reference compound]
4.72

###

# ASSAY TEXT: PK assay in rat (intravenous injection and oral gavage)
# Format: in vivo
# TEST CONDITIONS: plasma, 1 mg/kg; male SD rat, intravenous injection, 1 mpk; read-out: Half life t1/2 (converted)
PARAMETER: half-life (min)
The reply should contain only the number, in min.

Please give the measured half-life for this compound: COc1cc2nn([C@H]3CC[C@H](O)CC3)cc2cc1NC(=O)c1cccc(C(F)(F)F)n1 [MY-004-127-1]
377

Please give the measured half-life for this compound: CN(C)c1cc2nn([C@H]3C[C@H](C(C)(C)O)C3)cc2cc1NC(=O)c1cccc(C(F)(F)F)n1 [MY-004-089]
330

Please give the measured half-life for this compound: COc1cc2nn([C@H]3CC[C@@](C)(O)CC3)cc2cc1NC(=O)c1cccc(C(F)(F)F)n1 [MY-004-126-2]
455

Please give the measured half-life for this compound: COc1cc2nn([C@H]3C[C@H](CO)C3)cc2cc1NC(=O)c1cccc(C(F)(F)F)n1 [MY-004-082]
30.6

Please give the measured half-life for this compound: COc1cc2nn([C@H]3CC[C@](C)(O)CC3)cc2cc1NC(=O)c1cccc(C(F)(F)F)n1 [MY-004-126-1]
315

###

Documented AUC(0-t) across a set of molecules
# ASSAY TEXT: PK assay in rat (intravenous injection and oral gavage)
# Type: in vivo
# TEST CONDITIONS: plasma, 2 mg/kg; male SD rat, oral administration, 2 mpk, 5% DMSO + 15% Solutol + 80% Saline; read-out: Area under curve AUC0-t
# Protocol: The rats used for pharmacokinetic study in the example were male SPF-grade SD rats (B&K Universal, Shanghai). Route of administration: a single dose by oral gavage or intravenous injection Sampling points: 0.083 h, 0.25 h, 0.5 h, 1 h, 2 h, 4 h, 6 h, 8 h and 24 h after administration Sample processing: 0.2 mL of venous blood was collected, and let stand on ice before centrifugation to separate plasma (centrifugation conditions: 8000 rpm, 6 min, 4° C.). […]
The reply should contain only the number, in ng·h/mL.

Please give the measured AUC(0-t) for this molecule: COc1cc2nn([C@H]3C[C@H](CO)C3)cc2cc1NC(=O)c1cccc(C(F)(F)F)n1 [MY-004-082]
416

Next:
Please give the measured AUC(0-t) for this molecule: CN(C)c1cc2nn([C@H]3C[C@H](C(C)(C)O)C3)cc2cc1NC(=O)c1cccc(C(F)(F)F)n1 [MY-004-089]
3000
